B1: library; numbered along this chain (parent)
chain: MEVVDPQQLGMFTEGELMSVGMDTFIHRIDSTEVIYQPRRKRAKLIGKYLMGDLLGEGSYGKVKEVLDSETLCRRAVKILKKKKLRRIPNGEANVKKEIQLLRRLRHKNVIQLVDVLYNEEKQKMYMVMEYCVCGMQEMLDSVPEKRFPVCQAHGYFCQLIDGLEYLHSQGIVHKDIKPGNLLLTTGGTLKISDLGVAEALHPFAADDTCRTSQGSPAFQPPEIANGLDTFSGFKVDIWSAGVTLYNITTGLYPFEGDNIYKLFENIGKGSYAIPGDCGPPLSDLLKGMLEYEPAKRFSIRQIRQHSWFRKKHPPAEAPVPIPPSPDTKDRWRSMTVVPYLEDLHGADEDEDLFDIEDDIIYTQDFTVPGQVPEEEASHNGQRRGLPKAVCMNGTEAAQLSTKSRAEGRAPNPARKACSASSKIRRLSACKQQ

Variants of: B1
Assay: STK11 functional score (HeLa growth suppression), rescaled enrichment; synonymous median = 1, nonsense median = 0 (normalised score)
Conditions: with HeLa; variant type: missense

variant-description | STK11 functional score
N393T | 1.48
K82A | 1.43
L201W | 0.55
R103G | 0.667
N94S | 1.27
N119T | 1.42
L285G | -0.0815
D229K | 0.652
Y36H | 1.39
V197S | 1.58
S422D | 1.59
V243W | 0.598
D53C | 1.1
K269A | 0.886
I79P | 0.0986
P326L | 1.34
L201V | 0.808
M127V | 0.95
S404M | 1.58
E57V | 0.968
Y36K | 1.23
P281W | 0.551
A429K | 1.49
T185I | 0.548
S325V | 0.786
L140W | -0.107
K48Y | 1.4
R426G | 1.1
K262L | 1.13
I267N | 0.995
V243P | -0.157
K82W | 1.33
R40E | 1.41
F148Q | 0.0904
E375C | 1.31
I46P | 0.555
Q364T | 1.46
D115N | 1.65
D343G | 1.41
K287Y | 0.843
T212W | 1.41
A429Q | 1.56
I79V | 0.313
A417M | 1.47
R103T | 1.32
K423I | 1.25
A318Y | 1.63
A225V | 1.28
T244W | 0.257
E145P | 1.36
P387F | 1.14
L245P | -0.14
P6G | 0.386
M392W | 0.68
D141S | 1.21
T363Y | 1.18
E33V | 0.509
M136G | -0.14
N94R | 1.37
L427K | 1.53
D330E | 0.786
N393M | 1.48
E376I | 1.54
Y131H | 1.2
V236W | 1.04
R333H | 1.05
G135Q | 1.57
S232P | 0.971
P387R | 1.47
E374Y | 1.29
L190R | 0.223
E120M | 1.11
L72W | 1.08
A153F | 0.0706
L252F | 1.07
L201I | 1.48
R104K | 1.31
H313V | 0.495
S271W | 0.443
V110E | -0.206
